- Test system: E. coli 14
- method: MIC, liquid medium test tube series dilution test
- Assay type: cell-based
- stated.conditions: E. coli 14, 24 hours, 37°C
result.type: MIC

- COC(=O)N(C)C(=O)NC(C(=O)N[C@@H]1C(=O)N2[C@@H]1SC(C)(C)[C@@H]2C(=O)O)c1c(Cl)cccc1Cl (stereo partly drawn): 20-100 units/ml
- CN(C(=O)N[C@@H](C(=O)N[C@@H]1C(=O)N2[C@@H]1SC(C)(C)[C@@H]2C(=O)O)c1ccccc1)C(=O)C1CC=CCC1 (single isomer, unassigned): < 0.78 units/ml
- COC(=O)N(C)C(=O)NC(C(=O)N[C@@H]1C(=O)N2[C@@H]1SC(C)(C)[C@@H]2C(=O)O)c1ccc(OC)cc1 (stereo partly drawn): 4-20 units/ml

[Q] State, in one line, measured MIC of CN(C(=O)NC(C(=O)N[C@@H]1C(=O)N2[C@@H]1SC(C)(C)[C@@H]2C(=O)O)c1c(Cl)cccc1Cl)C(=O)c1ccccc1 (stereo partly drawn) [Example 31]
[A] 20-100 units/ml

[Q] State, in one line, measured MIC of CN(C(=O)N[C@@H](C(=O)N[C@@H]1C(=O)N2[C@@H]1SC(C)(C)[C@@H]2C(=O)O)c1ccccc1)C(=O)c1cccs1 [Example 75]
[A] < 0.8 units/ml

[Q] State, in one line, measured MIC of CC1(C)S[C@@H]2[C@H](NC(=O)C(NC(=O)N3CCNC3=O)c3ccc(Cl)cc3)C(=O)N2[C@H]1C(=O)O (stereo partly drawn)
[A] 3,12 units/ml
